- System Under Test: Bifunctional 3'-5' exonuclease/ATP-dependent helicase WRN (Homo sapiens)
- Sequence (Q14191 whole entry): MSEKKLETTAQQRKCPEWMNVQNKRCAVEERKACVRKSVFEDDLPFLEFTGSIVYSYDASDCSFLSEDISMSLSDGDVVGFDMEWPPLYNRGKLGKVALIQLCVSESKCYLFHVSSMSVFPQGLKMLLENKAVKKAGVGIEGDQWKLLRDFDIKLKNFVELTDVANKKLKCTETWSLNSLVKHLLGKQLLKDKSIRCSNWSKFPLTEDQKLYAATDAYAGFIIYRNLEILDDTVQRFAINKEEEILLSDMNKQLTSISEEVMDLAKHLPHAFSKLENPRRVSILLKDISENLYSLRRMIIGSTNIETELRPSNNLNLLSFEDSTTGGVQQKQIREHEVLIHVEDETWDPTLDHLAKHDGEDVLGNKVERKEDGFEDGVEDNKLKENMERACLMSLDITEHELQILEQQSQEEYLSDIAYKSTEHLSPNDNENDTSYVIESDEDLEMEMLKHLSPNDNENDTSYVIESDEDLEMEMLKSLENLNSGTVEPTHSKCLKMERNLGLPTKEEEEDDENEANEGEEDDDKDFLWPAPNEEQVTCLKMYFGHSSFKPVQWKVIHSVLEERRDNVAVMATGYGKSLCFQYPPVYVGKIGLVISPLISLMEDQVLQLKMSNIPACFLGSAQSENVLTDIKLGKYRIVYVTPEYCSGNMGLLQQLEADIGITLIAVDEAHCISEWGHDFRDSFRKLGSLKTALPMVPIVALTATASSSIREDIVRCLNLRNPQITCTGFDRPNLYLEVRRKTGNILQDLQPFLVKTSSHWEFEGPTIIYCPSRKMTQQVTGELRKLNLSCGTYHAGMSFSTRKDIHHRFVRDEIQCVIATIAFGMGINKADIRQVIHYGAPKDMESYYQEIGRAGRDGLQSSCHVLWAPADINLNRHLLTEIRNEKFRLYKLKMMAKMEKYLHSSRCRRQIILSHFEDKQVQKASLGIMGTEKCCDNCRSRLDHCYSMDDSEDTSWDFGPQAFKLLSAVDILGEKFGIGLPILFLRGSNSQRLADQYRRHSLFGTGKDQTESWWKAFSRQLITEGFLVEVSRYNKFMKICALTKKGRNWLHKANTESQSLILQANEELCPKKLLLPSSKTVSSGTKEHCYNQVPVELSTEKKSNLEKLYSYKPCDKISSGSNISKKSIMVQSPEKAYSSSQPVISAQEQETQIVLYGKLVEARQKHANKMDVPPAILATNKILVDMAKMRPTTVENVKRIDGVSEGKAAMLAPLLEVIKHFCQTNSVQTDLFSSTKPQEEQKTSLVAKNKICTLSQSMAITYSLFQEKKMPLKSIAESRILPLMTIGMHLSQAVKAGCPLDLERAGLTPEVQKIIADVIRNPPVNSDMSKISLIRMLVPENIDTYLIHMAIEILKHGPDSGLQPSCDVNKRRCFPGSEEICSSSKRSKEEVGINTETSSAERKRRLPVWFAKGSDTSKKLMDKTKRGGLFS
- Experiment: ADP-Glo Kinase Assay
Experimental Readout: pIC50
Recall that pIC50 is obtained by taking minus log10 of the concentration measured in molar.

Short answer for CCc1c(N2CCN(C(=O)c3ncnc(C)c3O)CC2)c(=O)n2nc(-c3ccc4c(cnn4C)c3)nc2n1CC(=O)Nc1ccc(C(F)(F)F)cc1Cl : pIC50 was 7.70

Memo: CCc1c(N2CCN(C(=O)c3ncnc(C)c3O)CC2)c(=O)n2nc(-c3cccc4c3CCO4)nc2n1CC(=O)Nc1ccc(C(F)(F)F)cc1Cl , reported pIC50: 7.07

Data point: CCc1c(N2CCN(C(=O)c3ncnc(C)c3O)C[C@@H]2C)c(=O)n2nc(-c3ccc4c(c3)COC4(C)C)nc2n1CC(=O)Nc1ccc(C(F)(F)F)cc1Cl ; pIC50 = 7.41

# molecule CCc1c(N2CCN(C(=O)c3ncnc(C)c3O)CC2)c(=O)n2nc(-c3ccc4c(c3)COC4)nc2n1CC(=O)Nc1ccc(Cl)c(OC(F)F)c1Cl ; its pIC50 = 7.52

Lab book: pIC50 of CCc1c(N2CCN(C(=O)c3ncnc(C)c3O)CC2)c(=O)n2nc(-c3cc4ccnn4cc3F)nc2n1CC(=O)Nc1ccc(C(F)(F)F)cc1Cl noted as 7.72

Reported pIC50 of CCc1c(N2CCN(C(=O)c3ncnc(C)c3O)CC2)c(=O)n2nc(-c3ccc4c(c3)CCN4C)nc2n1CC(=O)Nc1ccc(C(F)(F)F)cc1Cl : 7.40

The reported pIC50 of the molecule CCc1c(N2CCN(C(=O)c3ccccc3NS(=O)(=O)C3CC3)CC2)c(=O)n2nc(-c3ccc4c(c3)OCO4)nc2n1CC(=O)Nc1ccc(C(F)(F)F)cc1Cl was 6.80

Sure, the documented pIC50 for CCc1c(N2CCN(C(=O)c3ncnc(C)c3O)CC2)c(=O)n2nc(-c3ccc4c(c3)CC(=O)N4)nc2n1CC(=O)Nc1ccc(C(F)(F)F)cc1Cl is 7.60

Consider CCC1=C(N2CCN(C(=O)C3=C4NN=CC4CC=N3)CC2)C(=O)N2N=C(C3CCOCC3)NC2N1CC(=O)Nc1ccc(C(F)(F)F)cc1Cl (centres undefined) . Its measured pIC50 is 7.08

response.value for CCc1c(N2CCN(C(=O)c3nc4c(cc3O)CCCC4)CC2)c(=O)n2nc(-c3ccc4c(c3)COC4)nc2n1CC(=O)Nc1ccc(C(F)(F)F)cc1Cl (field: pIC50) = 6.77

So for CCc1c(N2CCN(S(=O)(=O)C3CC3)CC2)c(=O)n2nc(C3=CCOCC3)nc2n1CC(=O)Nc1ccc(C(F)(F)F)cc1Cl , the logged pIC50 turned out to be 7.41

response.value for CCc1c(N2CCN(C(=O)c3ncnc(C)c3O)CC2)c(=O)n2nc(-c3ccc4c(c3)CCC4(F)F)nc2n1CC(=O)Nc1ccc(C(F)(F)F)cc1Cl (field: pIC50) = 6.77

Data point: CCc1c(N2CCN(C(=O)c3ncnc(C)c3O)CC2)c(=O)n2nc(-c3ccc4c(c3)COC43CN(C)C3)nc2n1CC(=O)Nc1ccc(C(F)(F)F)cc1Cl ; pIC50 = 7.25

Reported pIC50 ( CCc1c(N2CCN(C(=O)c3ncnc(C)c3O)CC2)c(=O)n2nc(-c3ccc4nn(CC(F)F)cc4c3)nc2n1CC(=O)Nc1ccc(C(F)(F)F)cc1Cl ) = 7.55
